Entries and their self-cleavage kobs at 640 uM GlcN6P values follow.
B1: glmS ribozyme (parent)
chain: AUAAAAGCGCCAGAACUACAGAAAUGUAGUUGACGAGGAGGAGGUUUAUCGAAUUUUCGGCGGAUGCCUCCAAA

- Variants of: B1
- Protocol text: self-cleavage kobs at 640 uM GlcN6P; higher = faster cleavage; RNA array
- Particulars: with glucosamine-6-phosphate
Fewer inactive variants are shown than the library holds.

Solved entries:
| Seq text | self-cleavage kobs at 640 uM GlcN6P |
| --- | --- |
| AUAAAAGCGGCGGAACUACAGAAAUGUAGUUGACGAGCAGGAGGUUUAUCGAAUUUUCGGCGGAUGCCUCCAAA [C10G A12G G38C] | < 1e-05 s⁻¹ |
| AUAAAAGCGCCAGAACUACAGAAAUGUAGUGGACGAGGAGUAGGUUUAUCGAAUUUUCGGCGGAUGCCUCCAAA [U31G G41U] | 0.000154 s⁻¹ |
| AUAAAAGCGCCAGAACUACAGAAAUGUAGUUUACGAGGAGGAGGUUUAUCGAAUUUUAGGCGGAUGCCUCCAAA [G32U C58A] | 0.000164 s⁻¹ |
| AUAAAAGCGCCUGAACUACAGAAAUGUAGUUAACGAGGAGGAGGUUUAUCGUACUUUCGGGGUAUGCCUCAAAA [A12U G32A A52U U54C C61G G63U C71A] | < 1e-05 s⁻¹ |

Look at this variant and give its reported self-cleavage kobs at 640 uM GlcN6P. AUAAAAGCGUCAGAAUUACAGAAAUGUAGUUGACGAGGAGGAGGUUUAUCGAAUUUUCGGCGUAUGCCUCCAAA [C10U C16U G63U]
< 1e-05 s⁻¹

For AUAAAAGCGCCAGAACUACAGAAAUGUAGUUGACGACGAGGAGGUUUAUCGAUUUUUCGGCGGAUGCCGCCAAA [G37C A53U U69G] then?
3.81e-05 s⁻¹

Query AUAAAUGCGGCAGAACUACAGAAAUGUAGUUGACGAGGAGGAGGUUUAUCGACUUUUCGGCUGAUGCCUCCAAA [A6U C10G A53C G62U] next
< 1e-05 s⁻¹

Follow-up item: AUAAAAGCGCCAGAGCUACAGAAAUGUAGUUGACGAGGAGGAGGUUUAUCGAAUUUUCGGCGGAUGCCUCCAAA [A15G]
0.0144 s⁻¹

Next variant: AUAAAAGCGCGAGAACUACAGAAAUGUAGUUGACGAGGAGGAGGUUUGUCGAAUUUUCGGCGGAUGCCUCCAAA [C11G A48G]
< 1e-05 s⁻¹

Check AUAAAAGCGUCGGAACUACAGAAAUGUAGUUAACGAGGAGGUGGUUUAUCGAAUUUUCGGCGGAUGCCUCCAAA [C10U A12G G32A A42U] too.
< 1e-05 s⁻¹

Note, next up: AUAAAAGCGCCGGAACUACAGAAAUGUAGUUGACGAGGAGGAGGUUAAUCGAAUUUUCGGCGGAUGCCUUCAAA [A12G U47A C70U]
0.000192 s⁻¹
